These records show IC50 for DNA (cytosine-5)-methyltransferase 3B (Homo sapiens).

Example entries and their recorded answers appear below.
Form: molecule = `Cc1cc(Nc2ccc(NC(=O)c3ccc(Nc4ccnc5ccccc45)cc3)cc2)nc(N)n1` ; IC50 = 1.91 µM

// IC50 value for `CN1CCC(Nc2nc(-c3ccc(N)nc3)nc3c2ccn3CCCN2CCCC2)CC1` : > 20 µM

Further cases:
Just so you know, measured IC50 for `CN1CCC(Nc2nc(-c3ccncc3)nc3c2ccn3CCCN2CCCC2)CC1` came out at > 20 µM

###

This listing pairs compounds with measured half-life.
EXPERIMENT_NOTES: Terminal elimination half life in Sprague-Dawley rat at 10 mg/kg, po measured upto 24 hrs by LC/MS/MS analysis
Format: ADME, organism-based
CONDITION_NOTES: in vivo, read-out: beta t1/2 (converted)
Kindly answer with a numeric value in h, unit omitted.

These solved cases illustrate the format of a correct answer.
What the record says about `CN1CCC(Nc2nc(-c3ccc(C#N)c(F)c3)nc3c2ccn3CCCN2CCCC2)CC1` : half-life is 12.3

Please fill in: half-life reported for `CN1CCC(Nc2nc(-c3ccc(F)nc3)nc3c2ccn3CCCN2CCCC2)CC1` = 3.5

Please examine the following record next.
half-life reported for this compound `CN1CCC(Nc2nc(-c3ccnc(F)c3)nc3c2ccn3CCCN2CCCC2)CC1` : 21.9

###

Tested on: U-937
EXPERIMENT_NOTES: Antiproliferative activity against human U-937 cells assessed as inhibition of cell viability measured after 72 hrs by MTT assay
Format: functional, cell-based
CONDITION_NOTES: U-937, 72 h
pIC50: −log10 of the molar value.
If the reported pIC50 equals or exceeds 5, assign fulfilled. If not, assign not fulfilled.

(Q) Given `CC(C)N1CCC(Nc2nc(N3CCOCC3)nc3c2ccn3CCCN2CCCC2)CC1` , state whether its pIC50 is at least 5.
(A) not fulfilled

(Q) Hello, I need to know if `Cc1ccc(-c2cc(NCC3CCN(C(=O)OCc4ccccc4)CC3)c3cnn(CCCN4CCCC4)c3c2)o1` has measured pIC50 not below 5. Thanks!
(A) fulfilled

(Q) Exam item: decide whether the reported pIC50 for `COc1ccc(-c2nc(NC3CCN(C)CC3)c3ccn(CCCN4CCCC4)c3n2)cn1` is at least 5.
(A) fulfilled

(Q) Check the entry `CN1CCC(Nc2nc(-c3ccc(F)nc3)nc3c2ccn3CCCN2CCOCC2)CC1` : does pIC50 equal or exceed 5?
(A) fulfilled

###

TARGET_OR_SYSTEM: Histone-lysine N-methyltransferase EHMT2 (Homo sapiens)
Sequence (whole entry): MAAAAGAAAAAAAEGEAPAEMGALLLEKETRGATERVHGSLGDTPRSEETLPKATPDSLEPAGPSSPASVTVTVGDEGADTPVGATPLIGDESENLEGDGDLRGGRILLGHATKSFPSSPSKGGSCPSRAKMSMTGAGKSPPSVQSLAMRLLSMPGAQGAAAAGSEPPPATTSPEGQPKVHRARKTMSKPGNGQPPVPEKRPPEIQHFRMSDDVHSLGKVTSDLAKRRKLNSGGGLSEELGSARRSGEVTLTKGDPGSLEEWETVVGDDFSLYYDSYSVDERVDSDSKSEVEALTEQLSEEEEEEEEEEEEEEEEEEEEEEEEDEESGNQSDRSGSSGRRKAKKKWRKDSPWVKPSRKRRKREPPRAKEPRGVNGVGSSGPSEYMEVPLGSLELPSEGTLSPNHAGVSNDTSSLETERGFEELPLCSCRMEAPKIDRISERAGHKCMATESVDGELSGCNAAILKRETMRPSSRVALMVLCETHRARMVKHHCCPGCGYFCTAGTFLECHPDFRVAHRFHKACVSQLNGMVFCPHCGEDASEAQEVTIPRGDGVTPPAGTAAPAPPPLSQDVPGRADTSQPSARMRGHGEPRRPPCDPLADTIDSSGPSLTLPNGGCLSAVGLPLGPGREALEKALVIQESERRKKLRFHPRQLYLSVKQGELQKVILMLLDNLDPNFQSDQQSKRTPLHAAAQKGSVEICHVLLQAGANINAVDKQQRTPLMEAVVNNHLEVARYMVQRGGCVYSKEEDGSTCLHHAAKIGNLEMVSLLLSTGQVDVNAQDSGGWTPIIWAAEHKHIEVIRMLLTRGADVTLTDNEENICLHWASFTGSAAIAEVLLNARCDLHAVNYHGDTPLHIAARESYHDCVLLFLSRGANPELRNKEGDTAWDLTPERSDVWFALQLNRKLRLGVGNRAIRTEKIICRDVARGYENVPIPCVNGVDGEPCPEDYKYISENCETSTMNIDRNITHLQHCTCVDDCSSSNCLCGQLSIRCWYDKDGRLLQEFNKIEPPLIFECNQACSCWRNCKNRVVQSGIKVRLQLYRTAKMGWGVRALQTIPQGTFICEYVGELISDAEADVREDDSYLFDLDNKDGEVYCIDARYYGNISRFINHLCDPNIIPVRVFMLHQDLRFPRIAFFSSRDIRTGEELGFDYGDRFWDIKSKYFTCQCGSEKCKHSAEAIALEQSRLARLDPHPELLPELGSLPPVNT
EXPERIMENT_NOTES: Inhibition of G9a (unknown origin) at 5 uM preincubated for 15 mins followed by substrate and [3H-SAM] addition and measured after 60 mins by microbeta analysis relative to control
CONDITION_NOTES: time 75.0 min
MEASURED_ENDPOINT: inhibition (%)
Only the number, expressed in %, is required.

Data point: `CC(C)N1CCC(Nc2nc(N3CCCCC3)nc3c2ncn3CCCN2CCCC2)CC1` ; inhibition = 7.6

# compound `CC(C)N1CCC(Nc2nc(N3CCN(C)CC3)nc3c2ccn3CCCN2CCCC2)CC1` ; its inhibition = 3.6

Sample `Cc1ccc(-c2nc(NC3CCN(C(C)C)CC3)c3ncn(CCCN4CCCC4)c3n2)o1` ; inhibition observed: 2.5

inhibition reported for this compound `CN1CCC(Nc2nc(N3CCN(C)CC3)nc3c2ccn3CCCN2CCOCC2)CC1` : 12

inhibition recorded for this compound, `CC(C)N1CCC(Nc2nc(N3CCOCC3)nc3c2ccn3CCCN2CCCC2)CC1` , is -1.4

inhibition reading for `CN1CCC(Nc2nc(N3CCN(C)CC3)nc3c2ccn3CCCN2CCCC2)CC1` : -1.9

Value of inhibition reported for the compound `COc1ccc(-c2nc(NC3CCN(C)CC3)c3ccn(CCCN4CCCC4)c3n2)cn1` is 1

Per the record, `CN1CCC(Nc2nc(-c3ccc(F)nc3)nc3c2ccn3CCCN2CCCC2)CC1` has inhibition of 4.2

Others:
What the record says about `CN1CCC(Nc2nc(-c3ccc(F)cc3)nc3c2ccn3CCCN2CCCC2)CC1` : inhibition is 0.3

Entry `CN1CCC(Nc2nc(-c3ccc(N)nc3)nc3c2ccn3CCCN2CCCC2)CC1` , inhibition reported as -1.1

###

Vd values, listed per item
EXPERIMENT_NOTES: Volume of distribution at steady state in Sprague-Dawley rat at 10 mg/kg, iv measured upto 24 hrs by LC/MS/MS analysis
Format: ADME, organism-based
CONDITION_NOTES: in vivo, read-out: Vdss
Unit L/kg implied. Number only.

Guide cases for Vd, answers given:
Memo: `CN1CCC(Nc2nc(-c3ccnc(F)c3)nc3c2ccn3CCCN2CCCC2)CC1` , reported Vd: 102

Vd for `CN1CCC(Nc2nc(-c3ccc(C#N)c(F)c3)nc3c2ccn3CCCN2CCCC2)CC1` is 22.4

---
molecule `CN1CCC(Nc2nc(-c3ccc(F)nc3)nc3c2ccn3CCCN2CCCC2)CC1` , Vd observed: 33.8

###

EXPERIMENT_NOTES: Oral bioavailability in Sprague-Dawley rat at 10 mg/kg measured upto 24 hrs by LC/MS/MS analysis
Assay type: ADME, organism-based
CONDITION_NOTES: Sprague-Dawley, in vivo
MEASURED_ENDPOINT: bioavailability (%)
Write the answer as a number in %, unit excluded.

Query `CN1CCC(Nc2nc(-c3ccc(F)nc3)nc3c2ccn3CCCN2CCCC2)CC1` yields bioavailability of 6.5

Let's switch to this compound now.
For record `CN1CCC(Nc2nc(-c3ccnc(F)c3)nc3c2ccn3CCCN2CCCC2)CC1` the listed bioavailability is 23.4

###

Form field: inhibition (one value per entry).
TARGET_OR_SYSTEM: DNA (cytosine-5)-methyltransferase 1 (Homo sapiens, UniProt P26358)
Sequence (P26358 whole entry): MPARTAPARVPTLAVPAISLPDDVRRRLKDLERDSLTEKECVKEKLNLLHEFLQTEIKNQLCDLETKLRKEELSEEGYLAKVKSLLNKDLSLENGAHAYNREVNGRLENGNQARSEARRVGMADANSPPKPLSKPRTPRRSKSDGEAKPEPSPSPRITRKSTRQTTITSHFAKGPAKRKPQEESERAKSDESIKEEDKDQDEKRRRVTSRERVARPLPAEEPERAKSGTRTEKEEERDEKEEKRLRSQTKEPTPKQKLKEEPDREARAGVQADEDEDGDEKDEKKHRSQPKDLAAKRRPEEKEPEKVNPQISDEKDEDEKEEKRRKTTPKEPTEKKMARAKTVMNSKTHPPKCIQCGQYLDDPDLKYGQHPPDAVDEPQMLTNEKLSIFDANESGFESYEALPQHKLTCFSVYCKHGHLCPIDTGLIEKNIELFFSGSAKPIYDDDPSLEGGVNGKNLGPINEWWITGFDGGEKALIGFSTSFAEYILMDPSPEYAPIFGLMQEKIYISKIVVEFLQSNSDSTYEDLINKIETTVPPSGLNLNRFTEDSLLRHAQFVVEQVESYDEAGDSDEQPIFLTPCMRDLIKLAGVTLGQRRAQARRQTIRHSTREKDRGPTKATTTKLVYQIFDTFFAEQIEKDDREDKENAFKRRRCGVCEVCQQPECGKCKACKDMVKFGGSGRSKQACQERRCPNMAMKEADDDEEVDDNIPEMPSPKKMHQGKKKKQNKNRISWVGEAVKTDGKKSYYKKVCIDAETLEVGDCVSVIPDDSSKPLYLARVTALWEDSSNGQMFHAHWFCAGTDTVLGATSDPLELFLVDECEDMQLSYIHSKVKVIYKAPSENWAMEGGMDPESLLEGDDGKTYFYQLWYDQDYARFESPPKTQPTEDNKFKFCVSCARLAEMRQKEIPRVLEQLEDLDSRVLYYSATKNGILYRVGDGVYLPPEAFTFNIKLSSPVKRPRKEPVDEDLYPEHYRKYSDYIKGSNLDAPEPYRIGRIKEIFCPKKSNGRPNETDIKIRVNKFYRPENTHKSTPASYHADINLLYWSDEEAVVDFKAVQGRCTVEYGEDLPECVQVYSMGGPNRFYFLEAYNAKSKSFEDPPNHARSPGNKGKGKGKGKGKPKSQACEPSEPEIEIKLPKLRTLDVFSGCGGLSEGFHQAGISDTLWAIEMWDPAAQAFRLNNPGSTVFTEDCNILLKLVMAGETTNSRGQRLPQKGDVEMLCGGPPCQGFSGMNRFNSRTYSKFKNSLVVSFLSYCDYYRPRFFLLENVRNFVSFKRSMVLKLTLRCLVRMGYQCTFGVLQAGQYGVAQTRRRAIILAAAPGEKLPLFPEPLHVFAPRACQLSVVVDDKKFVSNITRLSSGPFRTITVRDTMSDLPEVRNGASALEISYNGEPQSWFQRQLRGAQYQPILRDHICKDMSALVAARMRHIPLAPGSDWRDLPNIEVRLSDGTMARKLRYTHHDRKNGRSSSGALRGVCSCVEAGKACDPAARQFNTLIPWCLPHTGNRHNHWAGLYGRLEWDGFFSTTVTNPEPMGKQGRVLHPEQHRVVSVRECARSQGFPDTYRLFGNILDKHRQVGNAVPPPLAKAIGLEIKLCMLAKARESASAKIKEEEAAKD
EXPERIMENT_NOTES: Inhibition of DNMT1 (unknown origin) at 5 uM preincubated for 15 mins followed by substrate and [3H-SAM] addition and measured after 60 mins by microbeta analysis relative to control
CONDITION_NOTES: time 75.0 min
Numeric only. Scale: %

GET /value?item= `CN1CCC(Nc2nc(N3CCCCC3)nc3c2ccn3CCCN2CCOCC2)CC1` &field=inhibition returns 21

Query `CN1CCC(Nc2nc(N3CCN(C)CC3)nc3c2ccn3CCCN2CCOCC2)CC1` yields inhibition of 25

The value of inhibition measured for the compound `CC(C)N1CCC(Nc2nc(-c3cn[nH]c3)nc3c2ncn3CCCN2CCCC2)CC1` turned out to be 49

Data point: `CN1CCC(Nc2nc(-c3ccnc(F)c3)nc3c2ccn3CCCN2CCCC2)CC1` ; inhibition = 75

// field: inhibition; key: `CN1CCC(Nc2nc(N3CCN(C)CC3)nc3c2ccn3CCCN2CCCC2)CC1` ; value = 39

Notebook: `CN1CCC(Nc2nc(N3CCCC3)nc3c2ccn3CCCN2CCCC2)CC1` , inhibition read as 25

---
For reference, reported inhibition for `CC(C)N1CCC(Nc2nc(-c3ccc(F)cc3)nc3c2ncn3CCCN2CCCC2)CC1` stands at 3.3

Lab book: inhibition of `CN1CCC(Nc2nc(-c3ccc(F)cc3)nc3c2ccn3CCCN2CCCC2)CC1` noted as 63

Looking up `CN1CCC(Nc2nc(-c3ccc(F)nc3)nc3c2ccn3CCCN2CCCC2)CC1` , I found its inhibition recorded as 72

Short answer for `CN1CCC(Nc2nc(-c3ccc(N)nc3)nc3c2ccn3CCCN2CCCC2)CC1` : inhibition was 52

Memo: `Cc1ccc(-c2nc(NC3CCN(C)CC3)c3ccn(CCCN4CCCC4)c3n2)o1` , reported inhibition: 43

For `Cc1ccc(-c2cc(NC3CCN(C(C)C)CC3)c3cnn(CCCN4CCCC4)c3c2)o1` the compound record lists inhibition as 56

Briefly, inhibition measured for `CN1CCC(Nc2nc(-c3ccc(F)nc3)nc3c2ccn3CCCN2CCOCC2)CC1` : 17
